Numbers sourced from patent US10807985B2.

Here, each record is paired with measured IC50 data.
Target: D816V KIT (Homo sapiens (Human), UniProt P10721, D816V)
Sequence (P10721 26-976 D816V): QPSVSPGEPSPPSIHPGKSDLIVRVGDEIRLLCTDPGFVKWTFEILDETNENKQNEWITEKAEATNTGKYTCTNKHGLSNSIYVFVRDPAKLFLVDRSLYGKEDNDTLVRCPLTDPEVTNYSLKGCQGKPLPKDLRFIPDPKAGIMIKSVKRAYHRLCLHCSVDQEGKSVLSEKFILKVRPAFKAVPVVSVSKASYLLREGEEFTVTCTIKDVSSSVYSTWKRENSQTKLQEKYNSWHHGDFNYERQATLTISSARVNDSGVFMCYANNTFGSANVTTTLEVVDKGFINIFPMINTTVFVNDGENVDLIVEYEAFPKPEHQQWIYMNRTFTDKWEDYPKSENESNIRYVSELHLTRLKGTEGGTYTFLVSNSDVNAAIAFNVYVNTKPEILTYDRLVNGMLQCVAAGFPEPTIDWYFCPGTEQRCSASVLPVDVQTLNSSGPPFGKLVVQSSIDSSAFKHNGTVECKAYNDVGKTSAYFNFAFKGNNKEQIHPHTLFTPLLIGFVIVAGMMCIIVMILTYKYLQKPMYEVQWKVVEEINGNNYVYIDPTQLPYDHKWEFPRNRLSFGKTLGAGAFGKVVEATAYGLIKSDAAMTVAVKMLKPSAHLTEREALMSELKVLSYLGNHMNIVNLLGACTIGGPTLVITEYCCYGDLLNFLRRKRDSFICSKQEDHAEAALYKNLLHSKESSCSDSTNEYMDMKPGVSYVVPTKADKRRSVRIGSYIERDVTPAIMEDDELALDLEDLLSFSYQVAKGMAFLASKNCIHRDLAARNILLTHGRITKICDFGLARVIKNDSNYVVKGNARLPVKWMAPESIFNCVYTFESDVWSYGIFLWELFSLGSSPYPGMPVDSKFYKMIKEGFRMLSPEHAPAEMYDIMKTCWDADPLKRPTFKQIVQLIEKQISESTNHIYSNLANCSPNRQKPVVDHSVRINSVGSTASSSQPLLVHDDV
Assay: KIT D816V assay at Km (Caliper electrophoretic mobility shift)
Details: biochemical, 15 uM ATP (Km), 90 minutes at 25 C; read-out: INH KIT D816V

compound: Cn1cc(-c2cc3c(N4CCN(c5ncc([C@](C)(O)c6ccccc6)cn5)CC4)ncnn3c2)cn1
IC50: 1.01 to 10 nM
//
compound: CN(C)[C@H](c1ccccc1)c1cnc(N2CCN(c3ncnn4cc(-c5cnn(C)c5)cc34)CC2)nc1
IC50: 10 to 100 nM
//
compound: Cn1cc(-c2cc3c(N4CCN(c5ncc([C@@](C)(N)c6c(F)cc(F)cc6F)cn5)CC4)ncnn3c2)cn1
IC50: < 1 nM
//
compound: Cn1cc(-c2cc3c(N4CCN(c5ncc([C@@](N)(c6ccc(F)cc6)C(F)F)cn5)CC4)ncnn3c2)cn1
IC50: < 1 nM

We next turn to a different compound, shown below.
Measured IC50 for this entry Cc1nn(C)cc1-c1cc2c(N3CCN(c4ncc([C@@](C)(O)c5ccc(F)cc5)cn4)CC3)ncnn2c1 (single isomer, unassigned) on D816V KIT (Homo sapiens (Human), UniProt P10721, D816V): < 1 nM

====

Molecular target: D816V KIT (Homo sapiens (Human), UniProt P10721, D816V)
Experiment: KIT D816V assay at Km (Caliper electrophoretic mobility shift)
Conditions: biochemical, 15 uM ATP (Km), 90 minutes at 25 C; read-out: INH KIT D816V
pIC50: −log10 of the molar value.
Here, each record is paired with measured pIC50 data.

Here are 2 compounds together with their reported answers.
compound: Cc1ccc(-c2cc3c(N4CCN(c5ncc([C@@](C)(O)c6ccc(F)cc6)cn5)CC4)ncnn3c2)s1
target or system: D816V KIT (Homo sapiens (Human), UniProt P10721, D816V)
measured: 7.00 to 8.00
--
compound: C[C@](O)(c1ccc(F)cc1)c1cnc(N2CCN(c3ncnn4cc(-c5cn[nH]c5)cc34)CC2)nc1
target or system: D816V KIT (Homo sapiens (Human), UniProt P10721, D816V)
measured: > 9.00

Quick note, pIC50 for c1ccc(Cc2cnc(N3CCN(c4ncnn5cc(-c6cnn(C[C@@H]7CNCCO7)c6)cc45)CC3)nc2)cc1 landed at > 9.00

Quick note, pIC50 for Cc1cc(-c2cc3c(N4CCN(c5ncc([C@](C)(O)c6ccc(F)cc6)cn5)CC4)ncnn3c2)no1 (single isomer, unassigned) landed at 7.00 to 8.00

Quick note, pIC50 for C[C@@](O)(c1ccc(F)cc1)c1cnc(N2CCN(c3ncnn4cc(-c5ccc(F)cc5)cc34)CC2)nc1 landed at 7.00 to 8.00

Quick note, pIC50 for Cn1cc(-c2cc3c(N4CCN(c5ncc([C@@](C)(O)c6c(F)cc(F)cc6F)cn5)CC4)ncnn3c2)cn1 landed at > 9.00

Quick note, pIC50 for Cn1cc(-c2cc3c(N4CCN(c5ncc([C@H](O)c6ccc(F)cc6)cn5)CC4)ncnn3c2)cn1 landed at 8.00 to 9.00

Quick note, pIC50 for COc1cccc(-c2cc3c(N4CCN(c5ncc([C@@](C)(O)c6ccc(F)cc6)cn5)CC4)ncnn3c2)c1 landed at 7.00 to 8.00

Quick note, pIC50 for COc1ccc(-c2cc3c(N4CCN(c5ccccc5)CC4)ncnn3c2)cc1 landed at < 7.00

Quick note, pIC50 for Cn1cc(-c2cc3c(N4CCN(c5ncc([C@@](C)(O)c6c(F)cccc6F)cn5)CC4)ncnn3c2)cn1 landed at 8.00 to 9.00

Quick note, pIC50 for Cn1cc(-c2cc3c(N4CCN(c5ncc(Sc6ccccc6F)c(N)n5)CC4)ncnn3c2)cn1 landed at > 9.00

Quick note, pIC50 for Cc1ccc(-c2cc3c(N4CCN(c5ncc([C@](C)(O)c6ccc(F)cc6)cn5)CC4)ncnn3c2)s1 landed at 7.00 to 8.00

Quick note, pIC50 for C[C@](N)(c1ccc(F)cc1)c1cnc(N2CCN(c3ncnn4cc(-c5cn[nH]c5)cc34)CC2)nc1 landed at > 9.00

Quick note, pIC50 for CC[C@](O)(c1ccc(F)cc1)c1cnc(N2CCN(c3ncnn4cc(-c5cnn(C)c5)cc34)CC2)nc1 landed at 8.00 to 9.00

====

Here, each record is paired with measured IC50 data.
Target: KIT D816V kinase activity (KIT autophosphorylation at tyrosine 719) in HMC1.2 cells (Homo sapiens (Human), UniProt P10721, D816V/V560G)
Sequence (P10721 26-976 V560G/D816V): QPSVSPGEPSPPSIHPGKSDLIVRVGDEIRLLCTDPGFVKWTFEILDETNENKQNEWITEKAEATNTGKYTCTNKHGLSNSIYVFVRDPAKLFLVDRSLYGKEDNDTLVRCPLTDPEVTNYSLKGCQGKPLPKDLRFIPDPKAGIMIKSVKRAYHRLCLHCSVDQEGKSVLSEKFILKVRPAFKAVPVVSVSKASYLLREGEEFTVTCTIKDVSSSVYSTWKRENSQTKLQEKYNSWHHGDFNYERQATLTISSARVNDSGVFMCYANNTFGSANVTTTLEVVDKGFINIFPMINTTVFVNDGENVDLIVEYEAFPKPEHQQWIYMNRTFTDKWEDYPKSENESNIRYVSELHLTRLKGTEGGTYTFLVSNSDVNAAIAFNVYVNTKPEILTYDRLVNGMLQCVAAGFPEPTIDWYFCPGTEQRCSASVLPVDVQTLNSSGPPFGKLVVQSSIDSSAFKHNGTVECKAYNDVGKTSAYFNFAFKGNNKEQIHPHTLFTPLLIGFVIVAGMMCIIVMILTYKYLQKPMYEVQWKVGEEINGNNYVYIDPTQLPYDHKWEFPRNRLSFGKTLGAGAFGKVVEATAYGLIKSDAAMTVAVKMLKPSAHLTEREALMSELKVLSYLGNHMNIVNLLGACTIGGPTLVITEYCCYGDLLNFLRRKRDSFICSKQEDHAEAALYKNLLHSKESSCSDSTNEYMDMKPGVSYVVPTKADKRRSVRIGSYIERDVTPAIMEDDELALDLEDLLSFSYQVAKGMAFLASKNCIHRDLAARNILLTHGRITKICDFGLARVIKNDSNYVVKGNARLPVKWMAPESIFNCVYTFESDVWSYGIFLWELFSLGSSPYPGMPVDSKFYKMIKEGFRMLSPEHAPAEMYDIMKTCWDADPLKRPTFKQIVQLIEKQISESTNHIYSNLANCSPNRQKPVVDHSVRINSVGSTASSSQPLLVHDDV
Assay: HMC1.2 autophosphorylation assay (phospho-Y719 c-KIT AlphaLISA)
Settings: HMC1.2 mast cell leukemia cell line (KIT V560G, D816V), 90 minutes compound; read-out: INH-KIT-PHOS-HMC1.2

Here are 3 compounds together with their reported answers.
compound: Cn1cc(-c2cc3c(N4CCN(c5ncc(Sc6ccccc6F)c(N)n5)CC4)ncnn3c2)cn1 [Compound 56]
readout name: IC50
measured: < 50 nM
--
compound: C[C@H](c1ccccc1)c1cnc(N2CCN(c3ncnn4cc(-c5cnn(C)c5)cc34)CC2)nc1 [Compound 9]
readout name: IC50
measured: < 50 nM
--
compound: Cn1cc(-c2cc3c(N4CCN(c5ncc(C(C)(C)c6c(F)cc(F)cc6F)cn5)CC4)ncnn3c2)cn1 [Compound 106]
readout name: IC50
measured: < 50 nM

Quick note, IC50 for C[C@](O)(c1ccc(F)cc1)c1cnc(N2CCN(c3ncnn4cc(-c5ccc(F)cc5)cc34)CC2)nc1 [Compound 65] landed at 100 to 1000 nM

Quick note, IC50 for Cn1cc(-c2cc3c(N4CCN(c5ncc([C@@](N)(c6ccc(F)cc6)C(F)(F)F)cn5)CC4)ncnn3c2)cn1 [Compound 122] landed at < 50 nM

Quick note, IC50 for Cc1ncc(-c2cc3c(N4CCN(c5ncc([C@@](C)(O)c6ccc(F)cc6)cn5)CC4)ncnn3c2)s1 [Compound 88] landed at < 50 nM

Quick note, IC50 for C[C@H](O)Cn1cc(-c2cc3c(N4CCN(c5ncc(Sc6ccccc6F)cn5)CC4)ncnn3c2)cn1 [Compound 105] landed at < 50 nM

Quick note, IC50 for Cn1cc(-c2cc3c(N4CCN(c5ncc([C@](C)(O)c6ccccc6)cn5)CC4)ncnn3c2)cn1 [Compound 24] landed at 100 to 1000 nM

Quick note, IC50 for C[C@@H]1CN(c2ncnn3cc(-c4cnn(C)c4)cc23)CCN1c1ncc([C@@](C)(O)c2ccc(F)cc2)cn1 [Compound 77] landed at < 50 nM

====

Biological target: D816V KIT (Homo sapiens (Human), UniProt P10721, D816V)
Test: KIT D816V assay at Km (Caliper electrophoretic mobility shift)
Conditions: biochemical, 15 uM ATP (Km), 90 minutes at 25 C; read-out: INH KIT D816V
pIC50: −log10 of the molar value.
readout name: pIC50

structure string: Cn1cc(-c2cc3c(N4CCN(c5ncc([C@@H](N)c6ccc(F)cc6)cn5)CC4)ncnn3c2)cn1
measured: 8.00 to 9.00
//
structure string: Cn1cc(-c2cn3ncnc(N4CCN(c5ncc([C@@](C)(O)c6ccc(F)cc6)cn5)CC4)c3c2F)cn1
measured: < 7.00
//
structure string: C=C(c1ccc(F)cc1)c1cnc(N2CCN(c3ncnn4cc(-c5cnn(C)c5)cc34)CC2)nc1
measured: 7.00 to 8.00
//
structure string: Cn1cc(-c2cc3c(N4CCN(c5ccccc5)CC4)ncnn3c2)cn1
measured: < 7.00
//
structure string: C[C@@H]1CN(c2ncnn3cc(-c4cnn(C)c4)cc23)CCN1c1ncc(Sc2ccccc2F)cn1
measured: 7.00 to 8.00

We next turn to a different compound, shown below.
Measured pIC50 for this entry C[C@](O)(c1ccc(F)cc1)c1cnc(N2CCN(c3ncnn4cc(-c5cccc(F)c5)cc34)CC2)nc1 on D816V KIT (Homo sapiens (Human), UniProt P10721, D816V): 8.00 to 9.00

====

Molecular target: D816V KIT (Homo sapiens (Human), UniProt P10721, D816V)
Experiment: KIT D816V assay at Km (Caliper electrophoretic mobility shift)
Conditions: biochemical, 15 uM ATP (Km), 90 minutes at 25 C; read-out: INH KIT D816V
readout name: IC50

Measured IC50 for this entry COc1ccc(-c2cc3c(N4CCN(c5ncc([C@@](C)(O)c6ccc(F)cc6)cn5)CC4)ncnn3c2)cc1 on D816V KIT (Homo sapiens (Human), UniProt P10721, D816V): 1.01 to 10 nM

Measured IC50 for this entry CCn1cc(-c2cc3c(N4CCN(c5ncc([C@@](C)(O)c6ccc(F)cc6)cn5)CC4)ncnn3c2)cn1 on D816V KIT (Homo sapiens (Human), UniProt P10721, D816V): < 1 nM

Measured IC50 for this entry Cc1ccc(-c2cc3c(N4CCN(c5ncc([C@@](C)(O)c6ccc(F)cc6)cn5)CC4)ncnn3c2)cc1 on D816V KIT (Homo sapiens (Human), UniProt P10721, D816V): 10 to 100 nM

Measured IC50 for this entry Cn1cc(-c2cc3c(N4CCN(c5ncc([C@@](C)(O)c6ccc(Cl)cc6)cn5)CC4)ncnn3c2)cn1 on D816V KIT (Homo sapiens (Human), UniProt P10721, D816V): < 1 nM

Measured IC50 for this entry Cn1cc(-c2cc3c(N4CCN(c5ncc([C@](O)(c6ccc(F)cc6)C6CC6)cn5)CC4)ncnn3c2)cn1 on D816V KIT (Homo sapiens (Human), UniProt P10721, D816V): 1.01 to 10 nM

Measured IC50 for this entry N#Cc1ccc(-c2cc3c(N4CCN(c5ncc(Cc6ccccc6)cn5)CC4)ncnn3c2)cc1 on D816V KIT (Homo sapiens (Human), UniProt P10721, D816V): 1.01 to 10 nM

Measured IC50 for this entry Cn1cc(-c2cc3c(N4CCN(c5ncc([C@@](C)(CO)c6ccc(F)cc6)cn5)CC4)ncnn3c2)cn1 on D816V KIT (Homo sapiens (Human), UniProt P10721, D816V): < 1 nM
